target: human iNKT‐cell TCR (Homo sapiens, UniProt A0A0B4J240+P15813); assay: SPR (BIAcore) binding of soluble human iNKT‐cell TCR to hCD1d/lipid complexes; conditions: SPR equilibrium binding; hCD1d refolded with lipid; read-out: K d, human iNKT‐cell TCR binding to hCD1d/lipid complex
Sequence (P01848 1-93): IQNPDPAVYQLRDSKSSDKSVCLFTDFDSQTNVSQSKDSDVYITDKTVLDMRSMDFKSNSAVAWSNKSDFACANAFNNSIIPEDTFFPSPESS
Sequence (P61769 21-119, further chain): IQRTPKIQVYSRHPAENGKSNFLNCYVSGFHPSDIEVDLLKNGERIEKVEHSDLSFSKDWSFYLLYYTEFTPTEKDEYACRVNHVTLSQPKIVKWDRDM
Sequence (A0A0B4J240 22-114): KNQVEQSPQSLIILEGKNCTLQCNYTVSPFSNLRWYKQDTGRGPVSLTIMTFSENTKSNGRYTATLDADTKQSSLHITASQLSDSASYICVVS
Sequence (P01850 1-129, further chain): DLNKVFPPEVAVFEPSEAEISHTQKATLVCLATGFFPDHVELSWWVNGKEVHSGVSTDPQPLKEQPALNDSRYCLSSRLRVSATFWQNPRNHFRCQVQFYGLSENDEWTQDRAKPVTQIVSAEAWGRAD
Sequence (P15813 20-301): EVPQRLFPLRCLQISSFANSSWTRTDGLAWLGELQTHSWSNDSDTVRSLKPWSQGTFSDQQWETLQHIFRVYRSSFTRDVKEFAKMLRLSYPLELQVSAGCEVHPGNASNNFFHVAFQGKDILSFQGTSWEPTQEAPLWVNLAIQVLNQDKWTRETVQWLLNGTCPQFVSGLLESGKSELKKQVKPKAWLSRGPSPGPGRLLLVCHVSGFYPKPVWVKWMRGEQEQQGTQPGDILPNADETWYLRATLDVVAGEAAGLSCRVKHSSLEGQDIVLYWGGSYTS
Measured pKd, listed per entry for reference.
Here pKd is given on a logarithmic scale as minus log10 of the concentration in mol/L.

// known answers, use as guide
In: What value of pKd has been reported for the following compound? CCCCCCCCCCCCCCCCCCCCCCCCCC(=O)N[C@@H](COC[C@H](O)[C@@H](O)CO)[C@H](O)[C@H](O)CCCCCCCCCCCCCC [ThrCer, threitolceramide, reference compound]
Out: 5.50

In: What value of pKd has been reported for the following compound? CCCCCCCCCCCCCCCCCCCCCCCCCC(=O)N[C@@H](CO[C@H]1CC[C@H](O)[C@H](O)[C@H]1O)[C@H](O)[C@H](O)CCCCCCCCCCCCCC [ThrCer 6]
Out: 6.21

In: What value of pKd has been reported for the following compound? CCCCCCCCCCCCCCCCCCCCCCCCCC(=O)NC(COC1CCCC(O)C(O)C1O)C(O)C(O)CCCCCCCCCCCCCC (stereo not shown) [ThrCer 7]
Out: 6.12

Moving on to another compound below.
In: What value of pKd has been reported for the following compound? CCCCCCCCCCCCCCCCCCCCCCCCCC(=O)N[C@@H](CO[C@H]1O[C@H](CO)[C@H](O)[C@H](O)[C@H]1O)[C@H](O)[C@H](O)CCCCCCCCCCCCCC [α‐GalCer, α‐galactosylceramide, reference compound]
Out: 5.95

Each recorded value in this set is attributed to paper PMC4913735.
